The origin of these recorded values is patent US7834030B2.

# TGT: human PPARalpha (Homo sapiens)
# Construct: human PPARalpha receptor (amino acids S167-Y468); expressed in transfected cells; plasmid pcDNA3
# Sequence (Q07869 167-468): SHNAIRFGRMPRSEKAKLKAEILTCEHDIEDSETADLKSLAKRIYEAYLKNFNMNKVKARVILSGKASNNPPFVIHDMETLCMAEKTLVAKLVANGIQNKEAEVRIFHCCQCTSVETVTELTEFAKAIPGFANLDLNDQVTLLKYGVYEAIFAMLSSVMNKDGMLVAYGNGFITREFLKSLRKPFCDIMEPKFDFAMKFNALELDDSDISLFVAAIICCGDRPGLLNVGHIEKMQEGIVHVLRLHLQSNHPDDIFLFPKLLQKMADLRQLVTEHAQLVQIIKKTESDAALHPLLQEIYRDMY
# ASSAY_TEXT: cellular PPARalpha assay (GAL4 luciferase reporter, stably transfected HEK cell line)
# Assay type: cell-based
MEASURED_PARAMETER: EC50 (µM)
Quick reminder: number only, in µM, skip the unit.

As a guide, the following entries are already answered.
CC[C@@H](Oc1ccc(-c2noc(=O)[nH]2)c(OC(F)F)c1)c1sc(-c2ccc(C(F)(F)F)cc2)nc1CN1CCC(C(F)(F)F)CC1 [(+)-45]    1.23
Cc1nc(-c2ccc(C(F)(F)F)cc2)sc1C(Oc1ccc(-c2noc(=O)[nH]2)c(Cl)c1)C(F)(F)F (racemic) [Example 20]    0.307
CC[C@@H](Oc1cc(OC)c(-c2noc(=O)[nH]2)cc1F)c1sc(-c2ccc(C(F)(F)F)cc2)nc1C [(+)-40]    0.677

Which EC50 value belongs to CCCCC(Cc1ccc(-c2noc(=O)[nH]2)c(F)c1)c1sc(-c2ccc(C(F)(F)F)cc2)nc1C (racemic) [Example 34] ?
1.07

Find the recorded EC50 belonging to Cc1nc(-c2ccc(C(F)(F)F)cc2)sc1C(OCc1ccc(-c2noc(=O)[nH]2)c2cccnc12)C(F)(F)F (racemic) [Example 25] and report it.
0.544

Would you kindly share the measured EC50 for CCC(Oc1ccc(-c2noc(=O)[nH]2)c(OC(F)F)c1)c1sc(-c2ccc(C(F)(F)F)cc2)nc1C (racemic) [Example 37] ?
0.223

Given CCC(Oc1ccc(-c2noc(=O)[nH]2)c(Cl)c1)c1sc(-c2ccc(C(F)(F)F)cc2)nc1C (racemic) [Example 4] , state its recorded EC50.
0.012

---

# TGT: human PPARdelta (Homo sapiens, UniProt Q03181)
# Construct: human PPARdelta receptor (amino acids S139-Y441); plasmid pcDNA3
# Sequence (Q03181 139-441): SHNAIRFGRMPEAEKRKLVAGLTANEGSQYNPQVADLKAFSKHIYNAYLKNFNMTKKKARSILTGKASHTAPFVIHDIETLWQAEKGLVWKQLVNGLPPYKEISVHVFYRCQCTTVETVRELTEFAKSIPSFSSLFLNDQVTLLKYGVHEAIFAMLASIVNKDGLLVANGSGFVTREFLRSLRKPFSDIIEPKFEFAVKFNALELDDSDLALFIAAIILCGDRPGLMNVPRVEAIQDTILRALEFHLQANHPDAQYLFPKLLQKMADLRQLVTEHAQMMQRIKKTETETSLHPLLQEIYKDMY
# ASSAY_TEXT: cellular PPARdelta assay (GAL4 luciferase reporter, stably transfected HEK cell line)
MEASURED_PARAMETER: log10 EC50 (log10 of the value in nM)
Record value = log10 of EC50 given in nM.

Examples from the recorded data:
CCC(Oc1ccc(-c2noc(=O)[nH]2)c(Cl)c1)c1sc(-c2ccc(C(F)(F)F)cc2)nc1C (racemic)    -0.70
Cc1nc(-c2ccc(C(F)(F)F)cc2)sc1C(OCc1ccc(-c2noc(=O)[nH]2)c(Cl)n1)C(F)(F)F (racemic)    1.23
CC[C@@H](Oc1ccc(-c2noc(=O)[nH]2)c(OC(F)F)c1)c1sc(-c2ccc(C(F)(F)F)cc2)nc1CN1CCC(C(F)(F)F)CC1 [(+)-45]    -0.52
CCC(Oc1ccc(-c2noc(=O)[nH]2)c(F)c1)c1sc(-c2ccc(C(F)(F)F)cc2)nc1C (racemic)    0.60

Notebook entry, human PPARdelta (Homo sapiens, UniProt Q03181) assay: log10 EC50 of Cc1nc(-c2ccc(C(F)(F)F)cc2)sc1C(OCc1ccc(-c2noc(=O)[nH]2)c2cccnc12)C(F)(F)F (racemic) = ?
0.48

I'm curious: which log10 EC50 was measured for CCC(Oc1ccc(-c2noc(=O)[nH]2)c(C2CC2)c1)c1sc(-c2ccc(C(F)(F)F)cc2)nc1C (racemic) tested on human PPARdelta (Homo sapiens, UniProt Q03181)?
0.00

---

Reported values of EC50 for individual entries
# TGT: human PPARalpha (Homo sapiens)
# Construct: human PPARalpha receptor (amino acids S167-Y468); plasmid pcDNA3
# Sequence (Q07869 167-468): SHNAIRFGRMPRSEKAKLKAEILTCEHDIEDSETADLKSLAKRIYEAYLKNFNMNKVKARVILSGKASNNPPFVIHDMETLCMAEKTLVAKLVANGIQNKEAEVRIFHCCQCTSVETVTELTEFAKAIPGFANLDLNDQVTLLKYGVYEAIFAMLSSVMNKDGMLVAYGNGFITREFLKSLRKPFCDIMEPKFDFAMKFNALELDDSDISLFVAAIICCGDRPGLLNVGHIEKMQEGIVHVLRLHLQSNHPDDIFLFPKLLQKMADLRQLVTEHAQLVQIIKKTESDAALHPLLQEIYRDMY
# ASSAY_TEXT: cellular PPARalpha assay (GAL4 luciferase reporter, stably transfected HEK cell line)
Express it in nM; write the number only.

Cc1nc(-c2ccc(C(F)(F)F)cc2)sc1C(OCc1ccc(-c2noc(=O)[nH]2)c(F)c1)C(F)(F)F (racemic) [Example 22]    2640
CCC(Oc1ccc(-c2noc(=O)[nH]2)c(C2CC2)c1)c1sc(-c2ccc(C(F)(F)F)cc2)nc1C (racemic) [Example 16]    117
CCC(Oc1ccc(-c2noc(=O)[nH]2)c(F)c1)c1sc(-c2ccc(C(F)(F)F)cc2)nc1C (racemic) [Example 35]    269
Cc1nc(-c2ccc(C(F)(F)F)cc2)sc1C(Cc1ccccn1)Oc1ccc(-c2noc(=O)[nH]2)c(Cl)c1 (racemic) [Example 10]    4380
Cc1nc(-c2ccc(C(F)(F)F)cc2)sc1C(OCc1ccc(-c2noc(=O)[nH]2)c(Cl)n1)C(F)(F)F (racemic) [Example 27]    1210

Could you now look at the following compound, please?
If you can, please state the reported EC50 value of CCC(Oc1ccc(-c2noc(=O)[nH]2)c(OCC(F)(F)F)c1)c1sc(-c2ccc(C(F)(F)F)cc2)nc1C (racemic) [Example 48] .
87
